- Test system: OCI-AML2;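 note: after 48 h exposure read by CellTiter-Glo luminescence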
- test: cell viability relative to vehicle control; higher = less cytotoxic
- condition_parameters: 10 µM; SRSF2 genotype: P95H/wt
Structures can show the parent of a compound that is named as a salt.

# molecule, cell viability, %
data = [
    ("NCCCCCNCC12CC3CC(CC(C3)C1)C2 [IEM 1754 dihydrobroMide]", 91.4),
    ("Cc1n[nH]c2ncc(C(=O)N3CCC[C@H]3c3ccc(Cl)cc3)cc12", 91.4),
    ("COc1c2c(cc3oc(COC4OC(CO)C(O)C(O)C4O)cc(=O)c13)OC(C(C)(C)O)C2 (stereo not drawn)", 91.8),
    ("CC1(C)C2CCC1(C)C(O)C2 (single isomer, unassigned; (+)) [(+)-Borneol]", 101),
    ("C=C[C@](C)(O)CC[C@@H]1[C@@]2(C)CCCC(C)(C)[C@@H]2CC[C@@]1(C)O", 89.2),
    ("CCCCCOC(=O)Nc1nc(=O)n([C@@H]2O[C@H](C)[C@@H](O)[C@H]2O)cc1F", 92.8),
    ("CNC(=O)c1cccc(-c2ccc3c(N4CCOC[C@@H]4C)nc(N4CCOC[C@@H]4C)nc3n2)c1", 29.2),
    ("CS(=O)(=O)OCCCCOS(C)(=O)=O", 88.6),
]
